Reference for the values: ChEMBL document CHEMBL4138100

Test system: C-X-C chemokine receptor type 4 (Homo sapiens) (UniProt P61073)
Sequence (P61073 whole entry): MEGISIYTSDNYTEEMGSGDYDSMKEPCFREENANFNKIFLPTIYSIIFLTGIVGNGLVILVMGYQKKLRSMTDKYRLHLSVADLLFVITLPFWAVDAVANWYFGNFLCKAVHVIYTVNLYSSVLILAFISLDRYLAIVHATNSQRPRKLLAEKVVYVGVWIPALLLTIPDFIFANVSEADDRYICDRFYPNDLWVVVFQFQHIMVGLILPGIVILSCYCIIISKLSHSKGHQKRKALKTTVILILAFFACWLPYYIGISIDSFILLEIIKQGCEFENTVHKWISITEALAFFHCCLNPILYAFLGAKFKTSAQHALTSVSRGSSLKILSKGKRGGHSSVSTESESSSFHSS
Assay procedure: Inhibition of biotinylated TN14003 binding to CXCR4 in human MDA-MB-231 cells assessed as reduction in fluorescence preincubated for 10 mins followed by biotinylated-TN14003 addition measured after 30 mins by streptavidin-rhodamine staining based immunofluorescence microscopic analysis
Format: cell-based
Reported EC is given for each of the following compounds.
The figure you give is taken to be in nM; do not add the unit.

Sample records with EC:
>>> observed_value("Cc1ccc(S(=O)(=O)NCc2ccc(CNC(=O)c3cccc(Cl)c3)cc2)cc1")
100
>>> observed_value("O=C(NCc1ccc(CNS(=O)(=O)c2ccccc2)cc1)c1ccc(F)cc1")
100
>>> observed_value("COc1ccccc1C(=O)NCc1ccc(CNS(=O)(=O)c2ccccc2)cc1")
1
>>> observed_value("COc1ccc(C(=O)NCc2ccc(CNS(=O)(=O)c3ccccc3)cc2)cc1")
1000

Then there is this compound:
Lab book: EC of `Cc1ccc(C(=O)NCc2ccc(CNS(=O)(=O)c3ccccc3)cc2)cc1` noted as 100
